TGT: T1, full-length human CTLA4 expressed on cells (human, UniProt P16410 36-223)
T1 construct: whole, on cells; also called HEK293F/hCTLA-4 cells; HEK293F/hCTLA4 cells
T1 sequence (looked up): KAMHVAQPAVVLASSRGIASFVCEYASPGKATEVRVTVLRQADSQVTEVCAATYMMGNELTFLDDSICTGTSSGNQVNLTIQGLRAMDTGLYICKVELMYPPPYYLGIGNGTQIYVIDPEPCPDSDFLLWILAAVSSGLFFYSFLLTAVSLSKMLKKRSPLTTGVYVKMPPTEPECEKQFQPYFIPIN
TEST_SUMMARY: flow cytometry blocking: HEK293F cells with human CTLA4, 100 nM antibody, then 100 nM CD86-Fc-Bio (blocked ligand); PBSA panel: Mean 10678, 12.2%
ENDPOINT: % of cells in upper right quadrant (CD86-positive) in the presence of the antibody (%)

{"BINDER": "TY21585 (antibody, V domains shown, human IgG1 (hIgG1) from Fab hit B15709) VH: EVQLVESGGGLVQPGGSLRLSCAASGFTFSDYAIHWVRQAPGKGLEWIGIISPSSGSTNYAQKFQGRVTISRDNSKNTLYLQLNSLRAEDTAVYYCARDIHSGSSGYYYGFDVWGQGTLVTVSS VL: DIQLTQSPSSLSASVGDRVTITCRASESVDFFGISFLAWYQQKPGKAPKLLIYDASNRATGIPSRFSGSGSGTDFTLTISSLQPEDFATYYCQHYTSSPPVYTFGQGTKVEIK", "ASSAY_RESULT": 3.43}
{"BINDER": "TY21589 (antibody, V domains shown, human IgG1 (hIgG1) from Fab hit B15740) VH: EVQLVESGGGLVQPGGSLRLSCAASGFTFSDYWIHWVRQAPGKGLEWIGWISPSGGGTKYAQKFQGRVTISRDNSKNTLYLQLNSLRAEDTAVYYCARGAYEFDYWGQGTLVTVSS VL: DIQLTQSPSSLSASVGDRVTITCRASQSVSSRFLAWYQQKPGKAPKLLIYDASNRATGIPSRFSGSGSGTDFTLTISSLQPEDFATYYCQQSYPTPLTFGQGTKVEIK", "ASSAY_RESULT": 0.55}
{"BINDER": "TY21587 (antibody, V domains shown, human IgG1 (hIgG1) from Fab hit B15722) VH: EVQLVESGGGLVQPGGSLRLSCAASGFTFSDYGIHWVRQAPGKGLEWIGEIYHSGSTYYSPSLKSRVTISRDNSKNTLYLQLNSLRAEDTAVYYCARDVAPGSSGYYDGFDFWGQGTLVTVSS VL: DIQLTQSPSSLSASVGDRVTITCRASQGIGSSLAWYQQKPGKAPKLLIYDASNRATGIPSRFSGSGSGTDFTLTISSLQPEDFATYYCQQYDQWPPWTFGQGTKVEIK", "ASSAY_RESULT": 6.59}
{"BINDER": "TY21591 (antibody, V domains shown, human IgG1 (hIgG1) from Fab hit B15756) VH: EVQLVESGGGLVQPGGSLRLSCAASGFSLSTGGVAVSWIRQAPGKGLEWIGEIYHSGSTYYSPSLKSRVTISRDNSKNTLYLQLNSLRAEDTAVYYCARRIATATYFDYWGQGTLVTVSS VL: DIQLTQSPSSLSASVGDRVTITCRASQTVFSRYLAWYQQKPGKAPKLLIYDASNRATGIPSRFSGSGSGTDFTLTISSLQPEDFATYYCQQSYYWPPWTFGQGTKVEIK", "ASSAY_RESULT": 0.61}
